EXPERIMENTAL_TARGET: T790M/L858R transformed Ba/F3 cells (Homo sapiens, UniProt P00533, T790M/L858R, cells depend on it)
Construct: The constructs were shuttled into the retroviral vector JP 1540 using the BD Creator™ System (BD Biosciences)
Sequence (P00533 whole entry T790M/L858R): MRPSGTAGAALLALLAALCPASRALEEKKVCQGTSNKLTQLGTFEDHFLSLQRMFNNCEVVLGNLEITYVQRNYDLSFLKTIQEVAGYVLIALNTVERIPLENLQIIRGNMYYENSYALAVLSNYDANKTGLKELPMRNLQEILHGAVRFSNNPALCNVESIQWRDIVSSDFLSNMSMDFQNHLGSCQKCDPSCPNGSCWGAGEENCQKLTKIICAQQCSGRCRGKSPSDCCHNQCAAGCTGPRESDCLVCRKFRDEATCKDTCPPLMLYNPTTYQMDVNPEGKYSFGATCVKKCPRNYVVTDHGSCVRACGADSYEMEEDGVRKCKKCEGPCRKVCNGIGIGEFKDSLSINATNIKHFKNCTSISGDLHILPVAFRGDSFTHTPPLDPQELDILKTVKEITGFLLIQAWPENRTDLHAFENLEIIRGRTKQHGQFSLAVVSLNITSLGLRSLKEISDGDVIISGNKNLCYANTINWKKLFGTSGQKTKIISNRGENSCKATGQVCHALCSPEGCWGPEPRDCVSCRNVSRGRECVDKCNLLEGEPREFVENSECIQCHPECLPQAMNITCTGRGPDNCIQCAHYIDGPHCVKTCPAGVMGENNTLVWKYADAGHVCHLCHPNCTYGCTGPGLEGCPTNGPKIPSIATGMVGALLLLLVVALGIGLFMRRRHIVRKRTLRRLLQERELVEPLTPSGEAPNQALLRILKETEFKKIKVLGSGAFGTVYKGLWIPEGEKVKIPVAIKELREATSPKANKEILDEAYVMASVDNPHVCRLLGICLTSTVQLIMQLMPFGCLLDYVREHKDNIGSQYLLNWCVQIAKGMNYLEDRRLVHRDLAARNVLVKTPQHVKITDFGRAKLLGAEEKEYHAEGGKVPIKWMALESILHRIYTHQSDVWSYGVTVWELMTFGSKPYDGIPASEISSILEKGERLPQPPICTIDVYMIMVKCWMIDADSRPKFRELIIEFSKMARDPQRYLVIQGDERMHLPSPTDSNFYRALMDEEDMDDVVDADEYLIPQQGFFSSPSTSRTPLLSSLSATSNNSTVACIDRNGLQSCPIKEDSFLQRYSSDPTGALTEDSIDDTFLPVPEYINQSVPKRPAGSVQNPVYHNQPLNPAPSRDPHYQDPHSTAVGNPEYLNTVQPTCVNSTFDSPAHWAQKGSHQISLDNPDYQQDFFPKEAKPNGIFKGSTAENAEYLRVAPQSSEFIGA
PROCEDURE_SUMMARY: Ba/F3 cell proliferation (MTS) assay, T790M/L858R
Assay type: cell-based, murine
TEST_CONTEXT: compound at 1 μM, inhibition of growth as percent of control
EXPERIMENTAL_ENDPOINT: % control

O=C1CCC(N2C(=O)c3cccc(NCCOCCC(=O)N4CCN(c5ccc(-c6ccc7c(c6)C(=O)N(C(C(=O)Nc6nccs6)c6ccccc6)C7)cc5)CC4)c3C2=O)C(=O)N1 (stereo not shown) ... D (D is 75<% control)
Cc1ncsc1-c1ccc(CNC(=O)[C@@H]2C[C@@H](O)CN2C(=O)[C@@H](NC(=O)CCOCCOCCOCCC(=O)N2CCN(c3ccc(-c4ccc5c(c4)C(=O)N(C(C(=O)Nc4nccs4)c4ccccc4)C5)cc3)CC2)C(C)(C)C)cc1 (stereo partly shown) ... D (D is 75<% control)
O=C1CCC(N2C(=O)c3cccc(NCCCCCCCCN4CCN(c5ccc(-c6ccc7c(c6)C(=O)N(C(C(=O)Nc6nccs6)c6ccccc6)C7)cc5)CC4)c3C2=O)C(=O)N1 (stereo not shown) ... D (D is 75<% control)
O=C1CCC(N2C(=O)c3cccc(NCCOCCOCCC(=O)N4CCN(c5ccc(-c6ccc7c(c6)C(=O)N(C(C(=O)Nc6nccs6)c6cc(F)ccc6O)C7)cc5)CC4)c3C2=O)C(=O)N1 (stereo not shown) ... A (A is 0<% control <25)
O=C1CCC(N2C(=O)c3cccc(NCCOCCOCCN4CCN(c5ccc(-c6ccc7c(c6)C(=O)N(C(C(=O)Nc6nccs6)c6cc(F)ccc6O)C7)cc5)CC4)c3C2=O)C(=O)N1 (stereo not shown) ... A (A is 0<% control <25)
O=C(Nc1nccs1)C(c1cc(F)ccc1O)N1Cc2ccc(-c3ccc(N4CCNCC4)cc3)cc2C1=O (stereo not shown) ... D (D is 75<% control)
O=C1CCC(N2C(=O)c3cccc(NCCOCCOCCOCCN4CCN(c5ccc(-c6ccc7c(c6)C(=O)N(C(C(=O)Nc6nccs6)c6ccccc6)C7)cn5)CC4)c3C2=O)C(=O)N1 (stereo not shown) ... A (A is 0<% control <25)
Cc1ncsc1-c1ccc(CNC(=O)[C@@H]2C[C@@H](O)CN2C(=O)[C@@H](NC(=O)CCOCCOCCOCCC(=O)N2CCN(c3ccc(-c4ccc5c(c4)C(=O)N(C(C(=O)Nc4nccs4)c4cc(F)ccc4O)C5)cc3)CC2)C(C)(C)C)cc1 (stereo partly shown) ... D (D is 75<% control)

###

EXPERIMENTAL_TARGET: T790M/L858R/C797S transformed Ba/F3 cells (Homo sapiens, UniProt P00533, T790M/C797S/L858R, cells depend on it)
Construct: The constructs were shuttled into the retroviral vector JP 1540 using the BD Creator™ System (BD Biosciences)
Sequence (P00533 whole entry T790M/C797S/L858R): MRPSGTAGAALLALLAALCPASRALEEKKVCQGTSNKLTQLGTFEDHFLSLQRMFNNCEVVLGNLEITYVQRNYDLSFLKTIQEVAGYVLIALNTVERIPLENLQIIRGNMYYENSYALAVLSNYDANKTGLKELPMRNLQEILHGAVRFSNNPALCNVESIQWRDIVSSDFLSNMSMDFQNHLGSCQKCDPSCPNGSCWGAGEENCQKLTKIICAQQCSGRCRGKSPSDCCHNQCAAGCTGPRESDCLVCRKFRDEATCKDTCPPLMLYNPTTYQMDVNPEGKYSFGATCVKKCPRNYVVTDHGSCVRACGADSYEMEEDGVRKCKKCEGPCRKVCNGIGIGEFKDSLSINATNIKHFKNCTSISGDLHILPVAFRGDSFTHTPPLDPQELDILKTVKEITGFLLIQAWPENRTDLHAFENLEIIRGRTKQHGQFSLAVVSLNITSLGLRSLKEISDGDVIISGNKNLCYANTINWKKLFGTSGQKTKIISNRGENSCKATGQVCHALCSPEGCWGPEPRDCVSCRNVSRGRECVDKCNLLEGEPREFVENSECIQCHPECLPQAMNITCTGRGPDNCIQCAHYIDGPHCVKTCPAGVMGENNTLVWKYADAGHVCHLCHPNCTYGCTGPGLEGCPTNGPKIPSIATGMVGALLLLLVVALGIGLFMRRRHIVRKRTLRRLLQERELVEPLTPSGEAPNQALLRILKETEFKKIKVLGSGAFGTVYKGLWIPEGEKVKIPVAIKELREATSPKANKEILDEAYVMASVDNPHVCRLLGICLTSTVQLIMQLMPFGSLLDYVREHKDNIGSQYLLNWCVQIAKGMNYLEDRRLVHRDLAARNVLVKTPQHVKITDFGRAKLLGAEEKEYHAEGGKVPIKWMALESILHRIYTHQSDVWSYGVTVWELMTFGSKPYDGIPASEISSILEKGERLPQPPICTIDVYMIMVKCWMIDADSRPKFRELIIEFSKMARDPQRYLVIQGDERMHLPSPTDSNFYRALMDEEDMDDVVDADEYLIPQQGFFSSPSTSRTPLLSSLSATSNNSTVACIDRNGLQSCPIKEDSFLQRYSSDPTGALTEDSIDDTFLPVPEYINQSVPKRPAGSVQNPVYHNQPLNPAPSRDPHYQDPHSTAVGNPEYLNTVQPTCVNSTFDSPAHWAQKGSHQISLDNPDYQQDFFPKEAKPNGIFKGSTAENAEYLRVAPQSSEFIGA
PROCEDURE_SUMMARY: Ba/F3 cell proliferation (MTS) assay, T790M/L858R/C797S
TEST_CONTEXT: antiproliferative activity
EXPERIMENTAL_ENDPOINT: EC50

O=C1CCC(N2C(=O)c3cccc(NCCOCCOCCOCCOCCN4CCN(c5ccc(-c6ccc7c(c6)C(=O)N(C(C(=O)Nc6nccs6)c6ccccc6)C7)cc5)CC4)c3C2=O)C(=O)N1 (centres unmarked) ... < 0.5 µM
O=C1CCC(N2C(=O)c3cccc(NCCOCCOCCOCCC(=O)N4CCN(c5ccc(-c6ccc7c(c6)C(=O)N(C(C(=O)Nc6nccs6)c6ccccc6)C7)cc5)CC4)c3C2=O)C(=O)N1 (centres unmarked) ... 0.5 to 1 µM
O=C1CCC(N2C(=O)c3cccc(NC4CN(CCOCCOCCOCCN5CCN(c6ccc(-c7ccc8c(c7)C(=O)N(C(C(=O)Nc7nccs7)c7ccccc7)C8)cc6)CC5)C4)c3C2=O)C(=O)N1 (centres unmarked) ... > 5 µM
O=C1CCC(N2C(=O)c3cccc(NCCCCCCN4CCN(c5ccc(-c6ccc7c(c6)C(=O)N(C(C(=O)Nc6nccs6)c6cc(F)ccc6O)C7)cc5)CC4)c3C2=O)C(=O)N1 (centres unmarked) ... > 5 µM
O=C1CCC(N2C(=O)c3cccc(NCCOCCOCCOCCN4CCN(c5ccc(-c6ccc7c(c6)C(=O)N(C(C(=O)Nc6nccs6)c6ccccc6O)C7)cn5)CC4)c3C2=O)C(=O)N1 (centres unmarked) ... > 5 µM
